assayExplanation: Color development of photochromic cured product (color density, maximum absorption wavelength), xenon lamp 120 seconds
Format: physicochemical
experimentalParameters: monomers 3PG:45,4G:45,GMA:9,MSD:1; 0.05 part fulgimide; 2 mm; 20±1° C.; 120 seconds irradiation
observedProperty: Color density (Abs)

compound	unitsSymbol	measuredValue
CC1=C2C(=O)N(c3cccc(F)c3)C(=O)C2C2(c3sc(C)cc31)C1CC3CC(C1)CC2C3 (stereo not drawn)	Abs	1.43
CC1=C2C(=O)N(c3cccc(S(=O)O)c3)C(=O)C2C2(c3sccc31)C1CC3CC(C1)CC2C3 (stereo not drawn)	Abs	1.22
N#Cc1cccc(N2C(=O)C3=C(C4CC4)c4ccsc4C4(C5CC6CC(C5)CC4C6)C3C2=O)c1 (stereo not drawn)	Abs	1.42
CC1=C2C(=O)N(c3cccc(C#N)c3)C(=O)C2C2(c3sc(-c4ccccc4)cc31)C1CC3CC(C1)CC2C3 (stereo not drawn)	Abs	1.25
CC1=C2C(=O)N(c3cccc(C(=O)c4ccccc4)c3)C(=O)C2C2(c3sccc31)C1CC3CC(C1)CC2C3 (stereo not drawn)	Abs	1.18
CC1=C2C(=O)N(c3cc(C#N)cc(C#N)c3)C(=O)C2C2(c3sc(-c4ccccc4)cc31)C1CC3CC(C1)CC2C3 (stereo not drawn)	Abs	1.58
